- measuredOn: Muscarinic acetylcholine receptor M4 (Homo sapiens) (UniProt P08173)
- Sequence (P08173 whole entry): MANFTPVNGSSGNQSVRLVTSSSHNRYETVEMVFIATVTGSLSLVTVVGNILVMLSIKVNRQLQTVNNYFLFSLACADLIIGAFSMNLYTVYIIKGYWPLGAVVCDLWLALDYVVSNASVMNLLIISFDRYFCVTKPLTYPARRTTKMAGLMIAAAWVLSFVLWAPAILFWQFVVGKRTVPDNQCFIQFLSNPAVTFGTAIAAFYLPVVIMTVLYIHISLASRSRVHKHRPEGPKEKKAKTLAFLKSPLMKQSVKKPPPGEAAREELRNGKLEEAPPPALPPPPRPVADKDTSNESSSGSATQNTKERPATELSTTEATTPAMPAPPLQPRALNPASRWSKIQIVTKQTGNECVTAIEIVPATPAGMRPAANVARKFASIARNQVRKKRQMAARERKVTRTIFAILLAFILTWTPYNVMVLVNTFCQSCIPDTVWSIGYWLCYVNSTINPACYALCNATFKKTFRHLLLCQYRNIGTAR
- recordedConditions: Compound concentration 10 µM; call rule not given here
Respond using exactly one of the listed classes: y = active, n = inactive

// known answers, use as guide
{"columns": ["molecule", "assignedCategory"],
 "data": [
  ["C[N+]1(C)[C@@H]2C[C@@H](OC(=O)C(O)(c3cccs3)c3cccs3)C[C@H]1[C@@H]1O[C@@H]12", "y"],
  ["CCCCCNC(=O)NS(=O)(=O)c1cc([N+](=O)[O-])ccc1NC1CCCCC1", "n"],
  ["CN(C)S(=O)(=O)c1ccc(NC(=S)N2CCC(C(O)(c3ccccc3)c3ccccc3)CC2)cc1", "n"],
  ["Cc1nc(-c2ccc(-c3ccc(C(=O)N4CCc5cc6c(cc54)C4(CCN(C)CC4)CO6)cc3)c(C)c2)no1", "n"],
  ["O=C(O)CC1CCC2(CC1)CCN(c1cc(OC(F)(F)F)ccc1Cl)CC2", "n"],
  ["CCOC(=O)c1cc(C#N)c(N2CCC(C(=O)NS(=O)(=O)Cc3ccccc3)CC2)nc1C", "n"],
  ["Nc1nc2c(c(N3CCNCC3)n1)CCC1=C2[C@@H]2CCCC[C@@H]2O1", "n"],
  ["FC(F)(F)c1cccc(-c2noc(-c3cc(-c4ccccc4)c(C(F)(F)F)s3)n2)c1", "n"]
]}

**Query** Write down the call the test reported for this molecule. Item: `CCCNS(=O)(=O)Nc1ncnc(OCCOc2ncc(Br)cn2)c1-c1ccc(Br)cc1`
**Result** n

**Query** Write down the call the test reported for this molecule. Item: `CN1C(=O)[C@@H](NC(=O)c2cc3ccccc3[nH]2)N=C(c2ccccc2)c2ccccc21`
**Result** n

**Query** Write down the call the test reported for this molecule. Item: `Cc1cc(NC(=O)Nc2ccc(N(C)C)cc2)c2cc(F)cc(F)c2n1`
**Result** n

* * *

- measuredOn: Histamine H4 receptor (Homo sapiens) (UniProt Q9H3N8)
- Sequence (Q9H3N8 whole entry): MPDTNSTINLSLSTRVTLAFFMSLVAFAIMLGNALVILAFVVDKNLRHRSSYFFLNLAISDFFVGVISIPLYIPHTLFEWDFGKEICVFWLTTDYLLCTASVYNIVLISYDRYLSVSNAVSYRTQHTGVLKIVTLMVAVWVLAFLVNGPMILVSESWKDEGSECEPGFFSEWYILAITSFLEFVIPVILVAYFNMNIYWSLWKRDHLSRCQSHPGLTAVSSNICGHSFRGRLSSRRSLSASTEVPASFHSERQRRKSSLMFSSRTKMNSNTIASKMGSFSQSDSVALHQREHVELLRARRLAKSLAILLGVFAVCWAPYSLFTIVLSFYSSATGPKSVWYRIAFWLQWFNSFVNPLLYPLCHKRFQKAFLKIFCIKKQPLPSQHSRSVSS
- recordedConditions: Compound concentration 10 µM; call rule not given here
Respond using exactly one of the listed classes: active, inactive

// known answers, use as guide
{"columns": ["molecule", "assignedCategory"],
 "data": [
  ["Cc1cccc([C@H](C)c2c[nH]cn2)c1C", "inactive"],
  ["O=C(Cc1ccc(Cl)c(Cl)c1)N1CCCC[C@H]1CN1CCCC1", "inactive"],
  ["C[C@]1(C(=O)N(CCCC(=O)O)Cc2cccc(Cl)c2)CCN1C(=O)c1csc2ccccc12", "inactive"],
  ["CC(C)NCC(O)COc1cccc2ccccc12 (stereo unspecified)", "inactive"],
  ["O=C(O)c1cc(-c2ccc(C3CCNCC3)cc2)c2ccc(-c3ccc(C(F)(F)F)cc3)cc2c1", "inactive"],
  ["O=C(O)C1CN(Cc2ccc(-c3nc4cc(Cc5ccccc5F)ccc4s3)c(F)c2)C1", "inactive"],
  ["N[C@H](C(=O)O)c1ccc(C(=O)O)c(C(=O)O)c1", "inactive"],
  ["CN(C(=O)Cc1ccc(Cl)c(Cl)c1)C(CN1CCCC1)c1cccc(OCC(=O)O)c1 (stereo unspecified)", "inactive"]
]}

**Query** Write down the call the test reported for this molecule. Item: `CCCCc1nc(Cl)c(CO)n1Cc1ccc(-c2ccccc2-c2nnn[nH]2)cc1`
**Result** inactive

**Query** Write down the call the test reported for this molecule. Item: `O=c1ccn([C@@H]2O[C@H](COP(=O)(O)OP(=O)(O)O)[C@@H](O)[C@H]2O)c(=O)[nH]1`
**Result** inactive

**Query** Write down the call the test reported for this molecule. Item: `O=C(O)COc1cccc(CN(Cc2ccc(-n3cccn3)cc2)S(=O)(=O)c2cccnc2)c1`
**Result** inactive

**Query** Write down the call the test reported for this molecule. Item: `CN(C)C(=O)N[C@H]1CC[C@H](CCN2CCN(c3cccc(Cl)c3Cl)CC2)CC1`
**Result** inactive

**Query** Write down the call the test reported for this molecule. Item: OCc1cc(C(O)CNCCCCCCOCCCCc2ccccc2)ccc1O (stereo unspecified)
**Result** inactive

**Query** Write down the call the test reported for this molecule. Item: `O=C(O)CC1CCC2(CC1)CCN(c1cc(OC(F)(F)F)ccc1Cl)CC2`
**Result** inactive

**Query** Write down the call the test reported for this molecule. Item: `N=C(N)SCCc1c[nH]cn1`
**Result** active

* * *

- measuredOn: Sodium-dependent dopamine transporter (Homo sapiens)
- recordedConditions: Compound concentration 10 µM; call rule not given here
Respond using exactly one of the listed classes: active, inactive

// known answers, use as guide
{"columns": ["substanceSmiles", "assignedCategory"],
 "data": [
  ["C[C@H](Cc1cc2c(c(C(N)=O)c1)N(CCCO)CC2)NCCOc1ccccc1OCC(F)(F)F", "inactive"],
  ["N#Cc1ccc(NC(=O)Nc2ccccc2Br)c2nn[nH]c12", "active"],
  ["CSc1ccc(C(=O)N[C@@H]2CCCC[C@@H]2NC(=O)CNC(=O)c2cc(C(F)(F)F)ccc2NC(=O)NC(C)C)cc1", "inactive"],
  ["O=C1N/C(=N/c2ccccc2F)S/C1=C\\c1ccc(C(=O)O)cc1", "inactive"]
]}

As a next step, examine the molecule that follows.
**Query** Write down the call the test reported for this molecule. Item: `N=C(N)SCCc1c[nH]cn1`
**Result** inactive

* * *

- measuredOn: UniProt:P18089
- Sequence (P18089 whole entry): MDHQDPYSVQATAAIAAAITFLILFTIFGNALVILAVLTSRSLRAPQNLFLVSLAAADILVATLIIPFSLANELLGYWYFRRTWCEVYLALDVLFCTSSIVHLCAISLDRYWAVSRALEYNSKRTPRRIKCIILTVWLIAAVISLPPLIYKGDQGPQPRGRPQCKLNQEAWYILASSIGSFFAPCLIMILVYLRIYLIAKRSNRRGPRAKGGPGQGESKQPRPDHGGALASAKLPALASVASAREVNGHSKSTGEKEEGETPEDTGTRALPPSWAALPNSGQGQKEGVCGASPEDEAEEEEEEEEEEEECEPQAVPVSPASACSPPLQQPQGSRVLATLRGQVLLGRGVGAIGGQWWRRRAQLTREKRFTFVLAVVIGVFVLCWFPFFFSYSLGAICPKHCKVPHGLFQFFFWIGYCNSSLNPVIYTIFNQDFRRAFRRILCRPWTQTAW
- recordedConditions: Compound concentration 10 µM; call rule not given here
Respond using exactly one of the listed classes: true = active, false = inactive

// known answers, use as guide
{"columns": ["substanceSmiles", "assignedCategory"],
 "data": [
  ["COc1ccc(NC(=O)c2ccc(-c3ccc(-c4noc(C)n4)cc3C)cc2)cc1OCCN(C)C", "true"],
  ["c1cc(CN2CCCNCCNCCCNCC2)ccc1CN1CCCNCCNCCCNCC1", "false"],
  ["CN1CC(=O)N=C1NC(=O)Nc1cccc(Cl)c1", "false"],
  ["Cc1cc(NC(=O)Nc2ccc(N(C)C)cc2)c2cc(F)cc(F)c2n1", "false"],
  ["Cc1nc(-c2ccc(-c3ccc(C(=O)N4CCc5cc6c(cc54)C4(CCN(C)CC4)CO6)cc3)c(C)c2)no1", "true"],
  ["CCCn1c(=O)c2[nH]c(-c3cnn(Cc4cccc(C(F)(F)F)c4)c3)nc2n(CC)c1=O", "false"]
]}

**Query** Write down the call the test reported for this compound. Item: `Cc1nn(C)c(C)c1-c1cccc2c1CC[C@H](N(C)C)C2`
**Result** true

**Query** Write down the call the test reported for this compound. Item: `Cc1cc(C)cc(C(=O)N(C)[C@H](Cc2ccc(-c3ccccc3)cc2)C(=O)N[C@@H](Cc2c[nH]c3ccccc23)C(=O)O)c1`
**Result** false

**Query** Write down the call the test reported for this compound. Item: `O=S1(=O)c2cccc3cccc(c23)N1CCCN1CCN(c2ccc(F)cc2)CC1`
**Result** true

* * *

- measuredOn: Sodium-dependent noradrenaline transporter (Homo sapiens) (UniProt P23975)
- Sequence (P23975 whole entry): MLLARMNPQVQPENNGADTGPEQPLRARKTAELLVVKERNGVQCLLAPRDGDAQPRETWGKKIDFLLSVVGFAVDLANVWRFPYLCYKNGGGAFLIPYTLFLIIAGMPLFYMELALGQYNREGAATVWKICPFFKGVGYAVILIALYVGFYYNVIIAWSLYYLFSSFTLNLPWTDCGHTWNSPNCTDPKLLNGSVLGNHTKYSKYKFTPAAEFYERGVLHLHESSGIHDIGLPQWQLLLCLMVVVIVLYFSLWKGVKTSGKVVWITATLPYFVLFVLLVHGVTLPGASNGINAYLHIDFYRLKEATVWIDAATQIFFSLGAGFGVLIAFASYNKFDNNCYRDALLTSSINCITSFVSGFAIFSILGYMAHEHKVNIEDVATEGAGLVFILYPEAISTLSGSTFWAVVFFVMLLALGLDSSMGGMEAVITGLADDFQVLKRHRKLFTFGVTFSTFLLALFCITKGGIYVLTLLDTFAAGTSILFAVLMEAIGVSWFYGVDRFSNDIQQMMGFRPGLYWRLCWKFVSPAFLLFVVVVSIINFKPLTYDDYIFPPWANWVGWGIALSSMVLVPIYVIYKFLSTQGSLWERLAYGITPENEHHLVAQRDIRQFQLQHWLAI
- recordedConditions: Compound concentration 10 µM
assayEndpoint: inhibition

{"columns": ["molecule", "measuredOn", "inhibition"],
 "data": [
  ["C[C@@H](N)Cc1c[nH]cn1", "Sodium-dependent noradrenaline transporter (Homo sapiens) (UniProt P23975)", "-7.81%"],
  ["COc1ccc2[nH]cc(CCNC(C)=O)c2c1", "Sodium-dependent noradrenaline transporter (Homo sapiens) (UniProt P23975)", "-9.78%"],
  ["O=C(O)C1CN(Cc2ccc(-c3nc4cc(Cc5ccccc5F)ccc4s3)c(F)c2)C1", "Sodium-dependent noradrenaline transporter (Homo sapiens) (UniProt P23975)", "20.8%"],
  ["COc1ccc(NC(=O)c2ccc(-c3ccc(-c4noc(C)n4)cc3C)cc2)cc1OCCN(C)C", "Sodium-dependent noradrenaline transporter (Homo sapiens) (UniProt P23975)", "94%"],
  ["FC(F)(F)c1c(N2CCC(c3ccccc3)CC2)ccn2c(CC3CC3)nnc12", "Sodium-dependent noradrenaline transporter (Homo sapiens) (UniProt P23975)", "31.6%"]
]}

Noted for `CCCCCCCCCCCCC/C=C/[C@@H](O)[C@@H](N)COP(=O)(O)O` : its inhibition reads 35.1%

Noted for `CN(C)C(=O)C(CCN1CCC(O)(c2ccc(Cl)cc2)CC1)(c1ccccc1)c1ccccc1` : its inhibition reads 25.8%

* * *

- measuredOn: Kappa-type opioid receptor (Homo sapiens) (UniProt P41145)
- Sequence (P41145 whole entry): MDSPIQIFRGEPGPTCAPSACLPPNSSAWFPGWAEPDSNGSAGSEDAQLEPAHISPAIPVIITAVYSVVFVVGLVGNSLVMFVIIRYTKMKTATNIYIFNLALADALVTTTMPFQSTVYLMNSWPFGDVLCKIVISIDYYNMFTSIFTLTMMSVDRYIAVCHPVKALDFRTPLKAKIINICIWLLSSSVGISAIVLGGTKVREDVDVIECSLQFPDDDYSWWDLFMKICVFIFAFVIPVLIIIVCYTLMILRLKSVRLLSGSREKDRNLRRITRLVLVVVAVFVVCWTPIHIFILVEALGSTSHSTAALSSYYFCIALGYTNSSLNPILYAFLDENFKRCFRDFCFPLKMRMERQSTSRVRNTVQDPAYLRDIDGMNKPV
- recordedConditions: Compound concentration 10 µM
assayEndpoint: inhibition (%)
Form entry: value (%) — number only.

{"columns": ["substanceSmiles", "assayEndpoint", "u", "number"],
 "data": [
  ["CO[C@@H]1COCC[C@@H]1N[C@@H]1CC[C@@](C(=O)N2CCc3ncc(C(F)(F)F)cc3C2)(C(C)C)C1", "inhibition", "%", 25.9],
  ["COc1ccnc(N2CCC3(CCCN(Cc4c[nH]c5ccccc45)C3=O)CC2)n1", "inhibition", "%", 6.61],
  ["CN1C(=O)[C@@H](NC(=O)c2cc3ccccc3[nH]2)N=C(c2ccccc2)c2ccccc21", "inhibition", "%", 30.7],
  ["COc1ccc(NS(=O)(=O)c2sc3ccc(Cl)cc3c2C)cc1N1CCNCC1", "inhibition", "%", 75.5],
  ["CN[C@@H]1CCc2[nH]c3ccc(C(N)=O)cc3c2C1", "inhibition", "%", 5.76]
]}

Noted for `CCCCCNC(=N)N/N=C/c1c[nH]c2ccc(OC)cc12` : its inhibition reads 35.1

Noted for `COC(=O)C1=C(C)NC(C)=C(C(=O)OCCCN2CCC(c3ccccc3)(c3ccccc3)CC2)[C@H]1c1cccc([N+](=O)[O-])c1` : its inhibition reads 95.6

Noted for `Cc1ccccc1N1CCN(S(=O)(=O)C[C@]23CC[C@H](C[C@@H]2NC(=O)[C@@H](N)CCS(C)(=O)=O)C3(C)C)CC1` : its inhibition reads 98.5

Noted for `NC(=O)[C@@H]1CCCN1C(=O)[C@H](Cc1c[nH]cn1)NC(=O)[C@@H]1CCC(=O)N1` : its inhibition reads 6.58
